# measurementTarget: T1, soluble human CD3 epsilon chain (human, UniProt P07766 23-126)
# T1 construct: also called CD3ε
# T1 sequence (P07766 23-126 limits assumed): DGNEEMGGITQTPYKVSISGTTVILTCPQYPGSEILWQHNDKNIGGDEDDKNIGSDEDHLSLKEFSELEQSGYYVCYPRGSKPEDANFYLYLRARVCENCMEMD
# protocolDetails: SPR
pKd: −log10 of the molar value.
Values of pKd greater than or equal to 8 map to fulfilled; values below map to not fulfilled.

binder	classLabel
TR01H040-E22Hh/none-Hi-Kn010G3/L0213-k0 (antibody, V domains shown, one-arm) VH: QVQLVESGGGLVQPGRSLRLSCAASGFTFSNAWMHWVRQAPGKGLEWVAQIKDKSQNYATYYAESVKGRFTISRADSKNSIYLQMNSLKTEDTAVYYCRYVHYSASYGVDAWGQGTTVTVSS VL: DIVMTQSPLSLPVTPGEPASISCRSSQSPVHSNRNTYIHWYQQKPGQAPRLLIYKVSNRFRGVPDRFSGSGSGTDFTLKISRVEAEDVGVYYCGQGTQVPYTFGQGTKLEIK	not fulfilled
TR01H068-E22Hh/none-Hi-Kn010G3/L0000-k0 (antibody, V domains shown, one-arm) VH: QVQLVESGGGVVQPGGSLRLSCAASGFTFSNAWMHWVRQAPGKGLEWVAQIKDKSQNYATYYAESVKGRFTISRDDSKNSLYLQMNSLKTEDTAVYYCRYVHYAASYGVDAWGQGTTVTVSS VL: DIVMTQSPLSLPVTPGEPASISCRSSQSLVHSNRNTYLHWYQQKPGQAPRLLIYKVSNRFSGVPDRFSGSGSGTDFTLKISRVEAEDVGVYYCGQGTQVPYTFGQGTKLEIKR	not fulfilled
hCE115HA-E22stHh/none-Hi-stKn010G3/L0000-k0 (antibody, V domains shown, one-arm) VH: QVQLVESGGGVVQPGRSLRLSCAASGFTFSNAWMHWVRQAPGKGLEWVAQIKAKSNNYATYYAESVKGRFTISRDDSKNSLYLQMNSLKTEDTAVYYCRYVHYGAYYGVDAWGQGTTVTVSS VL: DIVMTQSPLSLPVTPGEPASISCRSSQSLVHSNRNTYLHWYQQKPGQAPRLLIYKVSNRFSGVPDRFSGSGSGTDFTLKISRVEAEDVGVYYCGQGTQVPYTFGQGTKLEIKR	not fulfilled
TR01H040-E22Hh/none-Hi-Kn010G3/L0215-k0 (antibody, V domains shown, one-arm) VH: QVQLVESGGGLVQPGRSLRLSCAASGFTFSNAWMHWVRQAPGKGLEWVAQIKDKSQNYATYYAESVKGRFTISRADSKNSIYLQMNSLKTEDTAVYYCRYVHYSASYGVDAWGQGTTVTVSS VL: DIVMTQSPLSLPVTPGEPASISCRSSQPPVHSNRNTYIHWYQQKPGQAPRLLIYKVSNRFSGVPDRFSGSGSGTDFTLKISRVEAEDVGVYYCGQGTQVPYTFGQGTKLEIK	not fulfilled
TR01H028-E22Hh/none-Hi-Kn010G3/L0000-k0 (antibody, V domains shown, one-arm) VH: QVQLVESGGGVVQPGGSLRLSCAASGFTFSNAWMHWVRQAPGKGLEWVAQIKSKSQNYATYYAESVKGRFTISRADSKNSIYLQMNSLKTEDTAVYYCRYVHYSASYGVDIWGQGTTVTVSS VL: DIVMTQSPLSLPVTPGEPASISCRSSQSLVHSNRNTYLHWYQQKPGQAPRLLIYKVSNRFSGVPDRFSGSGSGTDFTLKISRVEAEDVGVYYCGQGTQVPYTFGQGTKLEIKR	not fulfilled
TR01H040-E22Hh/none-Hi-Kn010G3/L0236-k0 (antibody, V domains shown, one-arm) VH: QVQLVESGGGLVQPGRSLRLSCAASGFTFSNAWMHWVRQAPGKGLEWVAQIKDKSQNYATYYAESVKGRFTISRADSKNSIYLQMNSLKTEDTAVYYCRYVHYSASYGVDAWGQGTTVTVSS VL: DIVMTQSPLSLPVTPGEPASISCRSSQEPVHSNRNTYLHWYQQKPGQAPRLLIYKVSNRFWGVPDRFSGSGSGTDFTLKISRVEAEDVGVYYCYQGTQVPYTFGQGTKLEIK	fulfilled
TR01H040-E22Hh/none-Hi-Kn010G3/L0210-k0 (antibody, V domains shown, one-arm) VH: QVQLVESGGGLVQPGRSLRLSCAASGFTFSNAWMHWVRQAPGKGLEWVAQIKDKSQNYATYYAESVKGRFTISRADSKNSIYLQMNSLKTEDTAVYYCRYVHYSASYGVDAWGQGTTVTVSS VL: DIVMTQSPLSLPVTPGEPASISCRSSQSPVHSNRWTYLHWYQQKPGQAPRLLIYKVSNRFSGVPDRFSGSGSGTDFTLKISRVEAEDVGVYYCYQGTQVPYTFGQGTKLEIK	fulfilled
TR01H082-E22Hh/none-Hi-Kn010G3/L0263-k0 (antibody, V domains shown, one-arm) VH: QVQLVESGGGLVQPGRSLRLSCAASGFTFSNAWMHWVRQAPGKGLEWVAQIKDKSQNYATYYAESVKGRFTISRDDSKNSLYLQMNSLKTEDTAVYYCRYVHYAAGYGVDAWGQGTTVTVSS VL: DIVMTQSPLSLPVTPGEPASISCRSSQSPVHSNRNTYIHWYQQKPGQAPRLLIYKVSNRFSGVPDRFSGSGSGTDFTLKISRVEAEDVGVYYCAQGTQVPYTFGQGTKLEIK	not fulfilled
